- target_desc: NOV1401; further: test concentration or dose not given here
- Sequence (VH, as listed by the source, chain 1 of 2): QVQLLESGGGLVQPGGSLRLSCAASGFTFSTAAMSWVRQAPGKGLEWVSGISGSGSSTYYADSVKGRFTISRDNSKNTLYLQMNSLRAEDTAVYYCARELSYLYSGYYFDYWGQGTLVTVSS
- Sequence (VL, as listed by the source, chain 2 of 2): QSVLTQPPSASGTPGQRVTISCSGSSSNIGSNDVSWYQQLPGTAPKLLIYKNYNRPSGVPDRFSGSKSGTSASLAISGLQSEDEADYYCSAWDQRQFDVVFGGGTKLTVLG
- measurement_protocol: cell-based or functional assay
measured_property: aPTT percentage reversal, NOV1401/anti NOV1401 ratio 1/1 (n/n) (%)

binder="IDT10 (Fab, V domains shown, Fab; also called anti-NOV1401 Fab IDT10) VH: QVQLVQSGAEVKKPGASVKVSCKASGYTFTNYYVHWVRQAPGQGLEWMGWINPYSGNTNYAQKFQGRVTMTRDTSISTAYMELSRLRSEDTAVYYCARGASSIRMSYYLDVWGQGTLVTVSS VL: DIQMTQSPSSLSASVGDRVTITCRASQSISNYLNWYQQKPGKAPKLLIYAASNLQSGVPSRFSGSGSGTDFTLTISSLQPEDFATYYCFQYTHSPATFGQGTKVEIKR" recorded_result=12
binder="IDT9 (Fab, V domains shown, Fab; also called anti-NOV1401 Fab IDT9) VH: QVQLVQSGAEVKKPGASVKVSCKASGYTFTNYYVHWVRQAPGQGLEWMGWINPYNGNTNYAQKFQGRVTMTRDTSISTAYMELSRLRSEDTAVYYCARGASSIRMSYYLDVWGQGTLVTVSS VL: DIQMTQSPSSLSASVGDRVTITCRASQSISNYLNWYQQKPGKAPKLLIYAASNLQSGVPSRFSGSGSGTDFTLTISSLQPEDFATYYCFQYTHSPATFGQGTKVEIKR" recorded_result=10
binder="IDT3 (Fab, V domains shown, Fab; also called anti-NOV1401 Fab IDT3) VH: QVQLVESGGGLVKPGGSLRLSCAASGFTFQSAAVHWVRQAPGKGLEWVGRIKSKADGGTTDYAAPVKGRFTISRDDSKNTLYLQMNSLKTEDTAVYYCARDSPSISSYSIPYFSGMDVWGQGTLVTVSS VL: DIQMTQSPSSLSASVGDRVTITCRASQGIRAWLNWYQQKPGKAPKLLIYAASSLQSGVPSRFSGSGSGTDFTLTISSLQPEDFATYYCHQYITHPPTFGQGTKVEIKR" recorded_result=9
